# Tested on: Wolbachia pipientis
# assay: Anti-Wolbachia Cell-Based Screen
# Type: functional
# Set-up: scale not given: in the data most compounds retested in dose-response had high values
# condition info: 5 µM
Among all 48,000 compounds or so, about 13,000 (27%) showed an effect of 50% or more. The list shows a part of the results.
Listed here are molecules together with their documented Percent Effect.
Could you give me the number in %? Just the number is fine.

Would you kindly share the measured Percent Effect for CC1(C)[C@H](Cc2cc(CN3CCCCC3)on2)C[C@@H]1NC(=O)C1CC1 ?
0.3573

Would you kindly share the measured Percent Effect for Cc1ccsc1C(=O)N1CCc2ncc(Cn3cccn3)n2CC1 ?
-18.82

Would you kindly share the measured Percent Effect for CCOc1cc(C(=O)NS(=O)(=O)c2cccc(C#N)c2)ccc1OC ?
121

Would you kindly share the measured Percent Effect for COc1ccc(C(=O)Nc2cnn(CC(=O)NC3CCCC3)c2)c(O)c1 ?
-2.411

Would you kindly share the measured Percent Effect for N#Cc1ccc(C(=O)N2CCn3c(Cn4cccn4)cnc3C2)cc1.O=C(O)C(F)(F)F ?
-19.27

Would you kindly share the measured Percent Effect for CC(=O)N(Cc1ncc(C)o1)C1CCN(CCc2cccs2)C1 (stereo not given) ?
95.79

Would you kindly share the measured Percent Effect for N#Cc1ccc(S(=O)(=O)NC(=O)c2ccc3c(c2)COC3)cc1 ?
-13.21

###

# Test system: Wolbachia pipientis
# assay: Anti-Wolbachia Cell-Based Screen
# Format: functional
# Design: scale not given: in the data most compounds retested in dose-response had high values
# condition info: 5 µM
The whole screen tested about 48,000 compounds, of which about 13,000 (27%) showed an effect of 50% or more. Some of the results follow.
readout label: Percent Effect (%)
Could you give me the number in %? Just the number is fine.

Would you kindly share the measured Percent Effect for COC(=O)c1ccc(NC(=O)CCc2ccncc2)c(C)c1 ?
-3.514

Would you kindly share the measured Percent Effect for Cc1cccc(C(=O)N2C[C@@H]3CCN(C(C)C)C[C@@H]3C2)c1.O=C(O)C(F)(F)F ?
-3.353

Would you kindly share the measured Percent Effect for O=C(CCc1ccncc1)Nc1ccc(OCC2CC2)cc1 ?
33.82

Would you kindly share the measured Percent Effect for CN(C)C[C@H]1OC[C@@H]2CCN(C(=O)c3cccn3C)C[C@@H]21.O=C(O)C(F)(F)F ?
-2.348

Would you kindly share the measured Percent Effect for CCN(CC1CCOC1)S(=O)(=O)Cc1ccccc1Cl (stereo not given) ?
-1.168

###

# Test system: Wolbachia pipientis
# assay: Anti-Wolbachia Cell-Based Screen
# Format: functional
# Parameters: scale not given: in the data most compounds retested in dose-response had high values
# condition info: 5 µM
Screen size: about 48,000 compounds; about 13,000 (27%) showed an effect of 50% or more. This is one part of the list.
Kindly return T if reported Percent Effect is no lower than 10%; return F if it is lower.

# count of solved cases: 6
INSERT INTO results (molecule, assigned_class) VALUES
  ('O=C(Nc1ccccc1OC(F)(F)F)C1CCS(=O)(=O)C1 (centres undefined)', 'F'),
  ('CCOc1ccccc1NC(C)C(=O)N(C)Cc1cccc(F)c1 (centres undefined)', 'T'),
  ('CCc1ccccc1NC(=O)C1CN(C(C)=O)C1', 'F'),
  ('CCc1nnc(N2CCN(CCc3ccccc3)C(=O)C2)o1', 'F'),
  ('CC(NS(C)(=O)=O)C(=O)N(C)Cc1cnn(-c2ccc(F)cc2)c1 (centres undefined)', 'F'),
  ('Cc1ccc(C(=O)N2CCc3ccc(=O)n(CCN(C)C)c3CC2)o1.O=C(O)C(F)(F)F', 'T');

Answer whether Percent Effect of Cc1ccc(NS(=O)(=O)c2c[nH]c3ncccc23)nc1 is greater than or equal to 10%.
T

Answer whether Percent Effect of COc1cccc(-n2cc(CN(C)C(=O)c3cnc(O)cn3)cn2)c1 is greater than or equal to 10%.
F

Answer whether Percent Effect of CCc1cccc(CC)c1NC(=O)c1ccccc1N(C)S(C)(=O)=O is greater than or equal to 10%.
T

###

# System: Wolbachia pipientis
# assay: Anti-Wolbachia Cell-Based Screen
# Type: functional
# Parameters: scale not given: in the data most compounds retested in dose-response had high values
# condition info: 5 µM
Screen size: about 48,000 compounds; about 13,000 (27%) showed an effect of 50% or more. This is one part of the list.
readout label: Percent Effect (%)
Could you give me the number in %? Just the number is fine.

Would you kindly share the measured Percent Effect for CN(C)c1ncnc2c1CCN(C(=O)c1cccnc1)CC2.O=C(O)C(F)(F)F ?
9.198

###

# Test system: Wolbachia pipientis
# assay: Anti-Wolbachia Cell-Based Screen
# Format: functional
# Set-up: scale not given: in the data most compounds retested in dose-response had high values
# condition info: 5 µM
Out of some 48,000 compounds screened, about 13,000 (27%) showed an effect of 50% or more. The list shows a part of the results.
Listed here are compounds together with their documented Percent Effect.
Could you give me the number in %? Just the number is fine.

A selection of reference data follows.
INSERT INTO measurements (compound, measured_number) VALUES
  ('CCOCC1CN(C(=O)Cc2ccsc2)Cc2ccnn2C1.O=C(O)C(F)(F)F (stereo not given)', 4.742),
  ('COCc1nc2cc(NCc3ncc[nH]3)ccc2o1', 3.493),
  ('CCc1nc(C2CCCN(C(=O)NCCOC)C2)no1 (stereo not given)', 110.5);

Would you kindly share the measured Percent Effect for CCN1CCCC1CNCc1cc2cc(OC)ccc2[nH]c1=O (stereo not given) ?
59.94

Would you kindly share the measured Percent Effect for CCCSCC(=O)N1CCCC(c2nccn2Cc2ccncc2)C1 (stereo not given) ?
15.91

###

# Tested on: Wolbachia pipientis
# assay: Anti-Wolbachia Cell-Based Screen
# Format: functional
# Design: scale not given: in the data most compounds retested in dose-response had high values
# condition info: 5 µM
In all, about 48,000 compounds went through this assay and about 13,000 (27%) showed an effect of 50% or more. The list shows a part of the results.
Kindly return Y if reported Percent Effect is no lower than 10%; return N if it is lower.

# count of solved cases: 3
INSERT INTO measurements (compound, study_target, assigned_class) VALUES
  ('COC(=O)c1sccc1S(=O)(=O)NCCC(O)c1ccoc1 (configuration not stated)', 'Wolbachia pipientis', 'N'),
  ('Cc1csc(CNC(=O)NCC(O)c2ccccc2)n1 (configuration not stated)', 'Wolbachia pipientis', 'Y'),
  ('O=C(C1CCOCC1)N1CCC2(CCC(C(=O)N3CCCC3)O2)CC1 (configuration not stated)', 'Wolbachia pipientis', 'N');

Answer whether Percent Effect of O=C1CC2(CCN(CC3CC3)CC2)CN1Cc1cc(F)cc(F)c1 is greater than or equal to 10%.
Y

Answer whether Percent Effect of Cc1noc(C2CCC3(CCN(C(=O)c4ccn(C)n4)CC3)O2)n1 (configuration not stated) is greater than or equal to 10%.
Y

Answer whether Percent Effect of Cc1nnc2n1CCN(C(=O)c1cnc(C3CC3)s1)C2 is greater than or equal to 10%.
N

Answer whether Percent Effect of CC(=O)N1CCC2(CC1)CN(C(=O)[C@@H]1CSCN1)c1ccc(Cl)cc12.O=C(O)C(F)(F)F is greater than or equal to 10%.
Y

Answer whether Percent Effect of Cc1noc(C2CCN(C(=O)c3cc(Br)ccc3F)CC2)n1 is greater than or equal to 10%.
N

Answer whether Percent Effect of Cc1noc(C2CCC3(CCN(C(=O)C4CCOCC4)CC3)O2)n1 (configuration not stated) is greater than or equal to 10%.
Y

Answer whether Percent Effect of CC(O)CN1CCC(CNCc2cccc(Br)c2)CC1 (configuration not stated) is greater than or equal to 10%.
N

Answer whether Percent Effect of Cc1nsc(N2CCN(C(=O)Nc3cccc(C#N)c3)CC2)n1 is greater than or equal to 10%.
N

Answer whether Percent Effect of COCc1cc(N(C)Cc2ccccn2)nc(C(C)(C)C)n1 is greater than or equal to 10%.
N

###

# Test system: Wolbachia pipientis
# assay: Anti-Wolbachia Cell-Based Screen
# Assay type: functional
# Parameters: scale not given: in the data most compounds retested in dose-response had high values
# condition info: 5 µM
The whole screen tested about 48,000 compounds, of which about 13,000 (27%) showed an effect of 50% or more. Some of the results follow.
Listed here are compounds together with their documented Percent Effect.
Could you give me the number in %? Just the number is fine.

A selection of reference data follows.
INSERT INTO measurements (compound, measured_number) VALUES
  ('COc1ccc(S(=O)(=O)NCCn2cnc(C)cc2=O)cc1C', 93.11),
  ('CCCN1CCCn2nc(CNC(=O)CC(C)n3ccnc3C)cc2C1 (stereo not given)', -9.141),
  ('CCOc1ccc(CN2CCN(C(=O)c3ccc(C)n3C)CC2)cc1', 6.046),
  ('Cc1[nH]ncc1C(=O)NCC1CCC2(CC1)OCCO2', -7.861),
  ('C/C=C(/C)C(=O)NS(=O)(=O)c1ccc(Cl)cn1', 2.315);

Would you kindly share the measured Percent Effect for COc1ccc(F)cc1S(=O)(=O)NCC(c1cccn1C)N(C)C (stereo not given) ?
-20.36

Would you kindly share the measured Percent Effect for CNC(=O)[C@@H]1C[C@H](N)CN1Cc1cc2cc(OC)ccc2nc1O ?
8.618

Would you kindly share the measured Percent Effect for CCNC(=O)N1CCCCC1CCO (stereo not given) ?
-12.11

Would you kindly share the measured Percent Effect for CCC[C@H]1CN(S(=O)(=O)c2ccc(CC)s2)C[C@@H]1N ?
-3.149

Would you kindly share the measured Percent Effect for Cc1ccoc1CNCc1nnc2n1CCCC2C(F)(F)F (stereo not given) ?
-14.27

Would you kindly share the measured Percent Effect for COC(=O)c1ccc(S(=O)(=O)N2CCCn3ncnc32)s1 ?
103.1

Would you kindly share the measured Percent Effect for O=C(CSc1ccc2c(c1)OCCO2)NS(=O)(=O)c1cccnc1 ?
7.646

Would you kindly share the measured Percent Effect for O=C(c1ccc(-c2ccccc2)[nH]c1=O)N1CCCn2ncnc21 ?
1.123

Would you kindly share the measured Percent Effect for Cc1nc(C)n(CCNC2CCN(c3ncnc4c(C)csc34)CC2)n1 ?
-4.781

Would you kindly share the measured Percent Effect for CCCOC1CCCN(C(=O)Cn2cccc(C(F)(F)F)c2=O)C1 (stereo not given) ?
-4.197

Each recorded value in this set is attributed to ChEMBL document CHEMBL3988442.
